- PROTOCOL: Pharmacokinetics of NA and NUA in plasma after single oral doses of Niacin extended-release/Simvastatin tablets in healthy Chinese volunteers
- Format: in vivo
- ASSAY SETUP: both sexes, human, plasma, po, 3 tablets (1500 mg/30 mg), mean ± S.D., n = 12
READOUT KIND: AUC(0-inf)
Provide the measurement as a number trailed by its unit.

Can you look up the measured AUC(0-inf) of O=C(O)c1cccnc1 for me?
6100 ng·h/mL

====

- PROTOCOL: Pharmacokinetics of NA and NUA in plasma after single oral doses of Niacin extended-release/Simvastatin tablets in healthy Chinese volunteers
- Format: in vivo
- ASSAY SETUP: both sexes, human, in vivo, po, 1 tablet, read-out: mean maximum plasma concentration (C max)
READOUT KIND: Cmax (ng/mL)
One number for each entry, in ng/mL.

Which Cmax is listed for O=C(O)CNC(=O)c1cccnc1 ?
836

====

- PROTOCOL: Pharmacokinetics of NA and NUA in plasma after single oral doses of Niacin extended-release/Simvastatin tablets in healthy Chinese volunteers
- Format: in vivo
- ASSAY SETUP: both sexes, human, in vivo, po, 1 tablet (500 mg/10 mg), mean ± S.D., n = 12
READOUT KIND: Tmax

Quick one: Tmax of O=C(O)CNC(=O)c1cccnc1 ?
2.06 h

====

- PROTOCOL: Pharmacokinetics of NA and NUA in plasma after single oral doses of Niacin extended-release/Simvastatin tablets in healthy Chinese volunteers
- Type: in vivo
- ASSAY SETUP: both sexes, human, in vivo, po, 1 tablet (500 mg/10 mg), mean ± S.D., n = 12, read-out: K e (converted)
READOUT KIND: k el (s⁻¹)
One number for each entry, in s⁻¹.

Query: k el; subject: O=C(O)CNC(=O)c1cccnc1 [NUA, nicotinuric acid]
0.000147

====

- PROTOCOL: Pharmacokinetics of NA and NUA in plasma after single oral doses of Niacin extended-release/Simvastatin tablets in healthy Chinese volunteers
- Type: in vivo
- ASSAY SETUP: both sexes, human, plasma, po, 2 tablets (1000 mg/20 mg), mean ± S.D., n = 12, read-out: C max
READOUT KIND: Cmax (ng/mL)
One number for each entry, in ng/mL.

Would you mind telling me what Cmax value was observed for O=C(O)c1cccnc1 [NA, 3-pyridine-carboxylic acid] ?
904
